kon values for the binders below.
# study system: T1, monovalent hVISTA-ECD (human VISTA extracellular domain with His tail) (human, UniProt Q9H7M9 33-193)
# T1 construct: analyte flowed over captured antibody; also called huVISTA-His
# T1 sequence (Q9H7M9 other isoform, or with tags, fused parts or gaps limits assumed): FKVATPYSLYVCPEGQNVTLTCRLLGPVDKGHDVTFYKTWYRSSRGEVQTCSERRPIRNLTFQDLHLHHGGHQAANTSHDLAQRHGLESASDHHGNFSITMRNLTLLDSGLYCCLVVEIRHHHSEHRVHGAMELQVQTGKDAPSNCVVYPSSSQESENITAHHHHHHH
# assay comment: SPR, pH 7.4
readout: kon (M⁻¹ s⁻¹)

{"binder": "P1-065325 (41F11_VH_D31E/Y50W/S55E/A60H/Y100E VK_A64G) (antibody, V domains shown, Kabat positions; also called P1-065325-1) VH: QVQLVESGGGLVKPGGSLRLSCAASGFTFSEYYMSWIRQAPGKGLEWVSWISNSGEPIYYHDSVKGRFTISRDNAKNSLYLQMNSLRAEDTAVYYCARDLPGWEFDLWGRGTLVTVSS VL: EIVLTQSPATLSLSPGERATLSCRASQSVSSYLAWYQQKPGQAPRLLIYDASNRATGIPARFSGSGSGTDFTLTISSLEPEDFAVYYCQQRNNWPRTFGQGTKVEIK", "readout": "kon", "endpoint value": 618000}
{"binder": "P1-064494 (41F11_Vk_A25EA64G) (antibody, V domains shown, also called P1-064494-1) VH: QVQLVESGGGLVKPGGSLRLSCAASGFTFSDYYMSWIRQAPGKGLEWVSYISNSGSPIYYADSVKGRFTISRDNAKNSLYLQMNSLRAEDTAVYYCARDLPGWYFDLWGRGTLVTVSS VL: EIVLTQSPATLSLSPGERATLSCRESQSVSSYLAWYQQKPGQAPRLLIYDASNRATGIPARFSGSGSGTDFTLTISSLEPEDFAVYYCQQRNNWPRTFGQGTKVEIK", "readout": "kon", "endpoint value": 200000}
{"binder": "P1-065332 (41F11_VH_T28P/Y50W/S55E/A60H/Y100E VK_A64G) (antibody, V domains shown, Kabat positions; also called P1-065332-1) VH: QVQLVESGGGLVKPGGSLRLSCAASGFPFSDYYMSWIRQAPGKGLEWVSWISNSGEPIYYHDSVKGRFTISRDNAKNSLYLQMNSLRAEDTAVYYCARDLPGWEFDLWGRGTLVTVSS VL: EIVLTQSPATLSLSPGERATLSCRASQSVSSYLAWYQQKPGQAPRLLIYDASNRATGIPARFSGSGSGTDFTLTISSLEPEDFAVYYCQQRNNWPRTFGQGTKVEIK", "readout": "kon", "endpoint value": 517000}
{"binder": "P1-065320 (41F11_VH_L96EF100aG VK_A64G) (antibody, V domains shown) VH: QVQLVESGGGLVKPGGSLRLSCAASGFTFSDYYMSWIRQAPGKGLEWVSYISNSGSPIYYADSVKGRFTISRDNAKNSLYLQMNSLRAEDTAVYYCARDEPGWYGDLWGRGTLVTVSS VL: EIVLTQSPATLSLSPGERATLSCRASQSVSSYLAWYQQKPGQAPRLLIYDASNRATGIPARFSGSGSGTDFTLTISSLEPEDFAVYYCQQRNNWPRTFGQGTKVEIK", "readout": "kon", "endpoint value": 13800}
{"binder": "P1-064502 (41F11_Vk_R96YA64G) (antibody, V domains shown, also called P1-064502-1) VH: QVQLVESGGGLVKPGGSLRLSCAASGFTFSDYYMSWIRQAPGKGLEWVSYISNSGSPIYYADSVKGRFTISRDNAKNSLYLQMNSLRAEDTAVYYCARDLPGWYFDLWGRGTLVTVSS VL: EIVLTQSPATLSLSPGERATLSCRASQSVSSYLAWYQQKPGQAPRLLIYDASNRATGIPARFSGSGSGTDFTLTISSLEPEDFAVYYCQQRNNWPYTFGQGTKVEIK", "readout": "kon", "endpoint value": 301000}
